system: OVCAR-3-derived ovarian cancer stem-like cells (spheroids); assay: cell growth relative to untreated control; higher = more growth (less inhibition); conditions: 2.29 µM; 96 h
Readings of cell growth for the listed compounds

compound | test target | cell growth / %
COC(=O)c1ccc(=O)c2nc3/c(=C/O)c(O)cc(=O)c3[nH]c12 | OVCAR-3-derived ovarian cancer stem-like cells (spheroids) | 109
C=C1CC(COc2cc(=O)oc3ccccc23)(c2ccccc2)OC1=O (stereo unspecified) | OVCAR-3-derived ovarian cancer stem-like cells (spheroids) | 76.3
CC1=C2C(=CO[C@H](C)[C@H]2C)C(=O)C(C(=O)O)=C1O | OVCAR-3-derived ovarian cancer stem-like cells (spheroids) | 112
O=C1c2cccc(O)c2C(=O)c2c(O)cccc21 | OVCAR-3-derived ovarian cancer stem-like cells (spheroids) | 68.8
COc1ccc(CCN(C)CCCC(C#N)(c2ccc(OC)c(OC)c2)C(C)C)cc1OC (stereo unspecified) | OVCAR-3-derived ovarian cancer stem-like cells (spheroids) | 115
Cc1cccc(C)c1NC(=O)C(=O)C(c1ccccc1Cl)S(=O)(=O)Cc1ccccc1Cl (stereo unspecified) | OVCAR-3-derived ovarian cancer stem-like cells (spheroids) | 85.2
Oc1ccc(-c2nc3ccccc3s2)cc1 | OVCAR-3-derived ovarian cancer stem-like cells (spheroids) | 94.8
CCNC(=O)OCc1c(COC(=O)NCC)c(-c2ccc(Cl)c(Cl)c2)n2c1CCC2 | OVCAR-3-derived ovarian cancer stem-like cells (spheroids) | 74.1
CCOC(=O)C1=C(O)CSC1=Nc1ccc(N=C2SCC(O)=C2C(=O)OCC)cc1 | OVCAR-3-derived ovarian cancer stem-like cells (spheroids) | 108
Cc1ccccc1NC(=O)/C=N/O | OVCAR-3-derived ovarian cancer stem-like cells (spheroids) | 81
CCOC(=O)c1ccc(N=Cc2ccc(N(CCC#N)CCC#N)cc2)cc1 | OVCAR-3-derived ovarian cancer stem-like cells (spheroids) | 101

====

Readings of cell growth for the listed compounds
tested on: OVCAR-3-derived ovarian cancer stem-like cells (spheroids); test: cell growth relative to untreated control; higher = more growth (less inhibition); conditions: 2.29 µM; 96 h

compound | test target | cell growth (%)
Cc1nc(Cl)c(C)c(Cl)n1 | OVCAR-3-derived ovarian cancer stem-like cells (spheroids) | 88.2
O=C(NC(=O)c1c(Cl)nc2sccn12)Nc1ccc(Cl)cc1 | OVCAR-3-derived ovarian cancer stem-like cells (spheroids) | 136
O=C1Nc2c(Cl)cc(Cl)cc2C1=NN=Cc1ccco1 | OVCAR-3-derived ovarian cancer stem-like cells (spheroids) | 84.3
COc1cc(C(O)CCBr)c(OC)cc1C (stereo not drawn) | OVCAR-3-derived ovarian cancer stem-like cells (spheroids) | 86.9
CN1CCCC2C(c3ccccc3)C(C3=NCCCC3)C(c3ccccc3)CC21 (stereo not drawn) | OVCAR-3-derived ovarian cancer stem-like cells (spheroids) | 110
CCCCC(/C=N/N=C(N)N)CC.Cc1cc(O)c(C(C)C)cc1S(=O)(=O)O | OVCAR-3-derived ovarian cancer stem-like cells (spheroids) | 91.8
CC(=O)NC(CC(C)C)C(=O)NC(Cc1ccccc1)C(=O)CCl (stereo not drawn) | OVCAR-3-derived ovarian cancer stem-like cells (spheroids) | 88.6
CCN(CC)CC(C)(C)C(=O)/C=C/c1ccc(C)cc1 | OVCAR-3-derived ovarian cancer stem-like cells (spheroids) | 80.7
CN(C)C[C@H]1CC[C@@H](CN(C)C)C1=O | OVCAR-3-derived ovarian cancer stem-like cells (spheroids) | 93.8
COc1cccc(/C=N\NC(=O)C(C)SC(C)C(=O)N/N=C/c2cccc(OC)c2)c1 (stereo not drawn) | OVCAR-3-derived ovarian cancer stem-like cells (spheroids) | 100
CC(C)(C)[Si](C)(C)OCC1CCC(n2cnc3c(N)ncnc32)O1 (stereo not drawn) | OVCAR-3-derived ovarian cancer stem-like cells (spheroids) | 111
CCCCCCCCCCCCCCCC[N+](C)(C)CCl | OVCAR-3-derived ovarian cancer stem-like cells (spheroids) | 104
O=C1Oc2ccccc2C1C/C(=N\Nc1ccccc1)c1ccccc1O (stereo not drawn) | OVCAR-3-derived ovarian cancer stem-like cells (spheroids) | 158
CC(C)C1(Cl)CCC2C3(C)CCCC(C)(C(=O)O)C3CC(Cl)C2(Cl)C1Cl (stereo not drawn) | OVCAR-3-derived ovarian cancer stem-like cells (spheroids) | 94.6
Cc1ccc(CC2(OCCN(C)C)CCC(C(C)(C)C)CC2)cc1 (stereo not drawn) | OVCAR-3-derived ovarian cancer stem-like cells (spheroids) | 82.2
C=CCOC1OC(CO[Si](C)(C)C(C)(C)C)C(OCc2ccccc2)C(OCc2ccccc2)C1OCc1ccccc1 (stereo not drawn) | OVCAR-3-derived ovarian cancer stem-like cells (spheroids) | 116
COC(=O)C(=O)C(C(=O)C(=O)Nc1cc(C)ccc1C)c1nc2ccc(C(=O)c3ccccc3)cc2[nH]c1=O (stereo not drawn) | OVCAR-3-derived ovarian cancer stem-like cells (spheroids) | 91.5
CC1=CC(C)(C)N=C2SC(c3ccc(N)cc3)=NN12 | OVCAR-3-derived ovarian cancer stem-like cells (spheroids) | 112
CC1(c2cccc3ccccc23)OC(=O)c2ccccc21 (stereo not drawn) | OVCAR-3-derived ovarian cancer stem-like cells (spheroids) | 116
CCOC(=O)NC(Nc1ccc(F)cc1)(C(=O)OCC)C(F)(F)F (stereo not drawn) | OVCAR-3-derived ovarian cancer stem-like cells (spheroids) | 199
O=C(CCCN1CCC(C(O)c2ccc(F)cc2)CC1)c1ccc(F)cc1 (stereo not drawn) | OVCAR-3-derived ovarian cancer stem-like cells (spheroids) | 99.7
Cc1cn(C2CC(O)C(CO)O2)c(=O)[nH]c1=O (stereo not drawn) | OVCAR-3-derived ovarian cancer stem-like cells (spheroids) | 92.3
Fc1cccc(Cl)c1C1SCc2nc3ccccc3n21 (stereo not drawn) | OVCAR-3-derived ovarian cancer stem-like cells (spheroids) | 22.8

Data origin: the supplement of paper PMC3484114
